# Measurement Target: GABA-A receptor; alpha-1/beta-3/gamma-2 (Homo sapiens, UniProt P14867+P18507+P28472)
# Sequence (P14867 whole entry, one chain of several): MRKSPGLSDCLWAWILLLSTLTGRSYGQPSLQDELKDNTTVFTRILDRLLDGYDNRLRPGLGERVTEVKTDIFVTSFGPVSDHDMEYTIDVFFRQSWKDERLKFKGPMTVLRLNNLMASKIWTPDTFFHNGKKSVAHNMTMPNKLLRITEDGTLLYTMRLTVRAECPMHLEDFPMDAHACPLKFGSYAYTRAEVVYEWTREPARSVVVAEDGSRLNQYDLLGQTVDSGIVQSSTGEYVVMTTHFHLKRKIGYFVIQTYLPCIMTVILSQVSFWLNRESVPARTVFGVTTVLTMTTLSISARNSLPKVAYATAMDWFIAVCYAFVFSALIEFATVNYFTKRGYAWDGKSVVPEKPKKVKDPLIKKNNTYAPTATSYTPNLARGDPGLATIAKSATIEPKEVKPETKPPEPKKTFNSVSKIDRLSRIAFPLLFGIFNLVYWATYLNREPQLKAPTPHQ
# Method: Displacement of [3H]Ro-151788 from human GABA-A receptor alpha-1-beta-3-gamma-2 subunits expressed in L(tk-) cells (<50% inhibition at 10 uM)
# Assay type: cell-based
pKi: −log10 of the molar value.
Endpoint Name: pKi

COC(=O)c1cc(-c2ccc(OC)cc2)c(-c2ccc(N(C)C)cc2)n(C)c1=O | < 5.52

----------
# Measurement Target: GABA-A receptor; alpha-3/beta-3/gamma-2 (Homo sapiens, UniProt P18507+P28472+P34903)
# Sequence (P18507 whole entry): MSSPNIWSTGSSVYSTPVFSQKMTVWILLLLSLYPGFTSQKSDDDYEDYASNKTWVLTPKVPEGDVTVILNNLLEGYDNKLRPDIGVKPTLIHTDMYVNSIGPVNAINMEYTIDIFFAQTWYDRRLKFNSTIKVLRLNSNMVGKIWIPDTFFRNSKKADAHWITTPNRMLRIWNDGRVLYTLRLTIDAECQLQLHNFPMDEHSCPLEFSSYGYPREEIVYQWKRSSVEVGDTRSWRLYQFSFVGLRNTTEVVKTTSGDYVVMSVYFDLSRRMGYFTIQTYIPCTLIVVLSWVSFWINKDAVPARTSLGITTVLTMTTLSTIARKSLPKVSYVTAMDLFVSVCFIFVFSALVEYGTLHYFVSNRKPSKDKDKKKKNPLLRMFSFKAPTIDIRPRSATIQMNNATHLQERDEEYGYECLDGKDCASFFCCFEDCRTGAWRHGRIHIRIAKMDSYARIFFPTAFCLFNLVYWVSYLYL
# Sequence (P28472 whole entry): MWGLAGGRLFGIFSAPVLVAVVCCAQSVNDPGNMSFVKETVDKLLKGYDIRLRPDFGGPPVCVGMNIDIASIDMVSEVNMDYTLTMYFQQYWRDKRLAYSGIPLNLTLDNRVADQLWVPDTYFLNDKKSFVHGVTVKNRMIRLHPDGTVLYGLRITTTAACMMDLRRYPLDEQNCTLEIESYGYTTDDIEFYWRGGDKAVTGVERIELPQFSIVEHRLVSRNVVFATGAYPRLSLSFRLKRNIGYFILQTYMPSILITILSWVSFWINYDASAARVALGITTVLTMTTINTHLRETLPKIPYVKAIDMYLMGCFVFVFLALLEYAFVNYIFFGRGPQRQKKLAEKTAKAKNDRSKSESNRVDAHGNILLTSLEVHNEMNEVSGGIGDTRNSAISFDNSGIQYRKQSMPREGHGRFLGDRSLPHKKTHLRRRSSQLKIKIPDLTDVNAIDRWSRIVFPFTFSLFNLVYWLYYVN
# Sequence (P34903 whole entry): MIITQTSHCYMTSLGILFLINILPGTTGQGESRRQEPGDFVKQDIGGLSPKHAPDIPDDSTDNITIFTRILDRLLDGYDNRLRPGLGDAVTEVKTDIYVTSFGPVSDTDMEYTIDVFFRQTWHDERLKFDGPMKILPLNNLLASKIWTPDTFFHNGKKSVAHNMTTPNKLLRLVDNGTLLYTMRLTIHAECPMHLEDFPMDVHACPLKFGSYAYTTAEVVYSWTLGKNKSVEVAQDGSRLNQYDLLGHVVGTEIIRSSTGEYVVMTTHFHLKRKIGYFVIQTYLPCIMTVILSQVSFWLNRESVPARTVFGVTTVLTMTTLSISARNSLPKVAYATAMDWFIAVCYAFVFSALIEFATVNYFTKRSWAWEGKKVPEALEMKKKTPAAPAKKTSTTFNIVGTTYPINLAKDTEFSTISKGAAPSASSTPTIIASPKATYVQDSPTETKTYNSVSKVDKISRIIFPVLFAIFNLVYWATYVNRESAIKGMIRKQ
# Method: Binding affinity by displacement of [3H]Ro-151788 from recombinant human gamma-aminobutyric-acid A receptor alpha3,beta3,gamma2 stably expressed in L cells
# Assay type: cell-based
Quick reference: Ki of the listed items.
Endpoint Name: Ki (nM)

COc1ccc(-c2cc(-c3nc(C4CC4)cs3)c(=O)n(C)c2-c2ccncc2)cc1 | 12
COC(=O)c1cc(-c2ccc(OC)cc2)c(-c2ccccc2)n(C)c1=O | 210
COC(=O)c1cc(-c2ccc(OC)cc2)c(-c2ccc(N(C)C)cc2)n(C)c1=O | 250
COc1ccc(-c2cc(-c3nccs3)c(=O)n(C)c2-c2ccncc2)cc1 | 6.2

All figures here come from ChEMBL document CHEMBL1136055.
